assay: MMV: MTT Cytotoxicity Assay Day 3 pi, U87-CD4-CXCR4 cells, % cell death @ 5mM compound; format: toxicity, cell-based; details: human, u87-cd4-cxcr4, 5000 µM
Recorded % Cell Death values for a group of compounds are listed next.
Lab note: record just the number, no unit beside it.

Known results for compounds:
Cc1ccc(S(=O)(=O)c2c(COC(=O)c3cccc(C)c3)c(-c3ccccc3)nn2C)cc1 | 22
COc1ccc(C=C2SC(Nc3ccc(F)cc3)=NC2=O)c(OC)c1 | 28
COc1ccc(-c2cc(=O)oc3c4c(ccc23)OCN(Cc2ccc(F)cc2)C4)cc1 | 21

Shift focus to the following entry.
Output measured % Cell Death for this item: `CCCc1c(C)nc2ccc(Br)cc2c1O` 29

Each recorded value in this set is attributed to ChEMBL document CHEMBL3301472.
